# System: rat hepatic microsomal PTPases
# CONDITION INFO: PTPase activity, compound at 50 μM
PROPERTY LABEL: % Change from Control (%)

{"COMPOUND": "CC(C)c1cc(-c2c3ccccc3c(Br)c3sc4ccccc4c23)cc(C(C)C)c1O[C@H](C)C(=O)O", "MEASURED NUMBER": -71.19}
{"COMPOUND": "O=C(O)COc1ccc2c(c1)sc1cc3ccccc3c(-c3ccc(O[C@H](Cc4ccccc4)C(=O)O)cc3)c12", "MEASURED NUMBER": -75.29}
{"COMPOUND": "N#Cc1cc(-c2c3ccccc3cc3sc4ccccc4c23)cc(C#N)c1O", "MEASURED NUMBER": -58.12}
{"COMPOUND": "O=C(O)C(Cc1cccnc1)Oc1c(Br)cc(-c2c3ccccc3c(Br)c3sc4ccccc4c23)cc1Br (stereo not shown)", "MEASURED NUMBER": -64.92}
